Experiment Summary: Stability in mouse plasma assessed as parent compound remaining after 24 hrs
Assay type: ADME, cell-free
Setup Conditions: read-out: Stability
Each record's remaining at 24 h is compared with lowest (below 5%), middle (5% to below 30%), highest (30% or more) to give its class.

Before answering, review these 4 worked examples.
Test Smiles: CC(=O)N[C@@H](Cc1ccccc1)C(=O)N[C@@H](CCC(N)=O)C(=O)N[C@@H](CO)C(=O)N[C@@H](CCCCN)C(=O)N1CCC[C@@H]1C(=O)N[C@@H](CC(N)=O)C(=O)N[C@H](C(=O)N[C@@H](Cc1cnc[nH]1)C(=O)N[C@H](C(=O)N1CCC[C@H]1C(=O)N[C@H](C)C(=O)N[C@@H](Cc1ccc(O)cc1)C(=O)N[C@@H](Cc1ccccc1)C(=O)N[C@@H](CCC(=O)O)C(=O)N[C@@H](CCCNC(=N)N)C(=O)N[C@@H](CC(C)C)C(=O)NC(C)(C)C(=O)N[C@@H](C)C(=O)N[C@@H](CCCCN)C(=O)N[C@@H](CC(C)C)C(N)=O)C(C)C)C(C)C
Qualitative Label: middle

Test Smiles: CC(=O)N[C@@H](Cc1ccccc1)C(=O)N[C@@H](CCC(N)=O)C(=O)N[C@@H](CO)C(=O)N[C@@H](CCCCN)C(=O)N1CCC[C@@H]1C(=O)N[C@@H](CC(N)=O)C(=O)N[C@H](C(=O)N[C@@H](Cc1cnc[nH]1)C(=O)N[C@H](C(=O)N[C@@H](CC(=O)O)C(=O)NCC(=O)N[C@@H](Cc1ccc(O)cc1)C(=O)N[C@@H](Cc1ccccc1)C(=O)N[C@@H](CCC(=O)O)C(=O)N[C@@H](CCCNC(=N)N)C(=O)N[C@@H](CC(C)C)C(=O)NC(C)(C)C(=O)N[C@@H](C)C(=O)N[C@@H](CCCCN)C(=O)N[C@@H](CC(C)C)C(N)=O)C(C)C)C1CCCCC1
Qualitative Label: lowest

Test Smiles: COc1ccc(C[C@H](NC(=O)CNC(=O)[C@H](CC(=O)O)NC(=O)[C@@H](NC(=O)[C@H](Cc2cnc[nH]2)NC(=O)[C@@H](NC(=O)[C@H](CC(N)=O)NC(=O)[C@H]2CCCN2C(=O)[C@H](CCCCN)NC(=O)[C@H](CO)NC(=O)[C@H](CCC(N)=O)NC(=O)[C@H](Cc2ccccc2)NC(C)=O)C(C)C)C(C)C)C(=O)N[C@@H](Cc2ccccc2)C(=O)N[C@@H](CCC(=O)O)C(=O)N[C@@H](CCCNC(=N)N)C(=O)N[C@@H](CC(C)C)C(=O)NC(C)(C)C(=O)N[C@@H](C)C(=O)N[C@@H](CCCCN)C(=O)N[C@@H](CC(C)C)C(N)=O)cc1
Qualitative Label: middle

Test Smiles: CC(=O)N[C@@H](Cc1ccccc1)C(=O)N[C@@H](CCC(N)=O)C(=O)N[C@@H](CO)C(=O)N[C@@H](CCCCN)C(=O)N1CCC[C@@H]1C(=O)N[C@@H](CC(N)=O)C(=O)N[C@H](C(=O)N[C@@H](Cc1cnc[nH]1)C(=O)N[C@H](C(=O)N[C@@H](CC(=O)O)C(=O)NCC(=O)N[C@@H](Cc1ccc(O)cc1)C(=O)N[C@@H](Cc1ccccc1)C(=O)N[C@@H](CCC(=O)O)C(=O)N[C@@H](CCCNC(=N)N)C(=O)N[C@@H](CC(C)C)C(=O)NC(C)(C)C(=O)N[C@@H](C)C(=O)N[C@@H](CCCCN)C(=O)N[C@@H](CC(C)C)C(N)=O)c1ccccc1)C(C)C
Qualitative Label: lowest

# input Class label required: `CC(=O)NCSC[C@H](NC(=O)[C@H]1CCCN1C(=O)[C@H](CCCCN)NC(=O)[C@H](CO)NC(=O)[C@H](CCC(N)=O)NC(=O)[C@H](Cc1ccccc1)NC(C)=O)C(=O)N[C@H](C(=O)N[C@@H](Cc1c[nH]cn1)C(=O)N[C@H](C(=O)N[C@@H](CC(=O)O)C(=O)NCC(=O)N[C@@H](Cc1ccc(O)cc1)C(=O)N[C@@H](Cc1ccccc1)C(=O)N[C@@H](CCC(=O)O)C(=O)N[C@@H](CCCNC(=N)N)C(=O)N[C@@H](CC(C)C)C(=O)NC(C)(C)C(=O)N[C@@H](C)C(=O)N[C@@H](CCCCN)C(=O)N[C@@H](CC(C)C)C(N)=O)C(C)(C)C)C(C)C`
# output highest

# input Class label required: `CCCC[C@H](NC(=O)C(C)(C)NC(=O)[C@H](CC(C)C)NC(=O)[C@H](CCCNC(=N)N)NC(=O)[C@H](CCC(=O)O)NC(=O)[C@H](Cc1ccccc1)NC(=O)[C@H](Cc1ccc(O)cc1)NC(=O)CNC(=O)[C@H](CC(=O)O)NC(=O)[C@@H](NC(=O)[C@H](Cc1cnc[nH]1)NC(=O)[C@@H](NC(=O)[C@H](CC(N)=O)NC(=O)[C@H]1CCCN1C(=O)[C@H](CCCCN)NC(=O)[C@H](CO)NC(=O)[C@H](CCC(N)=O)NC(=O)[C@H](Cc1ccccc1)NC(C)=O)C(C)C)C(C)(C)C)C(=O)N[C@@H](CCCCN)C(=O)N[C@@H](CC(C)C)C(N)=O`
# output middle

# input Class label required: `CC(=O)N[C@@H](Cc1cccs1)C(=O)N[C@@H](CCC(N)=O)C(=O)N[C@@H](CO)C(=O)N[C@@H](CCCCN)C(=O)N1CCC[C@@H]1C(=O)N[C@@H](CC(N)=O)C(=O)N[C@H](C(=O)N[C@@H](Cc1cnc[nH]1)C(=O)N[C@H](C(=O)N[C@@H](CC(=O)O)C(=O)NCC(=O)N[C@@H](Cc1ccc(O)cc1)C(=O)N[C@@H](Cc1ccccc1)C(=O)N[C@@H](CCC(=O)O)C(=O)N[C@@H](CCCNC(=N)N)C(=O)N[C@@H](CC(C)C)C(=O)NC(C)(C)C(=O)N[C@@H](C)C(=O)N[C@@H](CCCCN)C(=O)N[C@@H](CC(C)C)C(N)=O)C(C)C)C(C)C`
# output lowest

# input Class label required: `CCC(CC)(NC(=O)[C@H](CC(C)C)NC(=O)[C@H](CCCNC(=N)N)NC(=O)[C@H](CCC(=O)O)NC(=O)[C@H](Cc1ccccc1)NC(=O)[C@H](Cc1ccc(O)cc1)NC(=O)[C@@H](C)NC(=O)[C@H](CC(=O)O)NC(=O)[C@@H](NC(=O)[C@H](Cc1cnc[nH]1)NC(=O)[C@@H](NC(=O)[C@H](CC(N)=O)NC(=O)[C@H]1CCCN1C(=O)[C@H](CCCCN)NC(=O)[C@H](CO)NC(=O)[C@H](CCC(N)=O)NC(=O)[C@H](Cc1ccccc1)NC(C)=O)C(C)C)C(C)(C)C)C(=O)N[C@@H](C)C(=O)N[C@@H](CCCCN)C(=O)N[C@@H](CC(C)C)C(N)=O`
# output highest

# input Class label required: `CC(=O)N[C@@H](Cc1ccccc1)C(=O)N[C@@H](CCC(N)=O)C(=O)N[C@@H](CO)C(=O)N[C@@H](CCCCN)C(=O)N1CCC[C@@H]1C(=O)N[C@@H](CC(N)=O)C(=O)N[C@H](C(=O)N[C@@H](Cc1cnc[nH]1)C(=O)N[C@H](C(=O)N1CCC[C@H]1C(=O)N[C@H](CS)C(=O)N[C@@H](Cc1ccc(O)cc1)C(=O)N[C@@H](Cc1csc2ccccc12)C(=O)N[C@@H](CCS)C(=O)N[C@@H](CCCNC(=N)N)C(=O)N[C@@H](CC(C)C)C(=O)NC(C)(C)C(=O)N[C@H](C)C(=O)N[C@@H](CCCCN)C(=O)N[C@@H](CC(C)C)C(N)=O)C(C)C)C(C)C`
# output middle
